Hey, just so you know, these numbers are from ChEMBL document CHEMBL3259704.

Tested on: Plasmodium falciparum
Test: Antimalarial activity against CQ-resistant, MFQ-susceptible Plasmodium falciparum W2 clone Indochina 1 isolate assessed as inhibition of parasite proliferation by MSF assay
Format: functional, organism-based
measured_metric: pIC50
Field pIC50 (float): negative decimal logarithm of the concentration in molar.

I looked up `CC(=O)O[C@@H]1CC[C@@]2(C)[C@@H](C1)C[C@@H](OC(C)=O)[C@@H]1[C@@H]2C[C@H](OC(C)=O)[C@]2(C)[C@@H]([C@H](C)CCCN(C)CCNc3ccnc4cc(Cl)ccc34)CC[C@@H]12` and its pIC50 for Plasmodium falciparum was 7.73

I looked up `CC(=O)O[C@@H]1CC[C@@]2(C)[C@@H](C1)C[C@@H](OC(C)=O)[C@@H]1[C@@H]2C[C@H](OC(C)=O)[C@]2(C)[C@@H]([C@H](C)CCCNCCCNc3ccnc4cc(Cl)ccc34)CC[C@@H]12` and its pIC50 for Plasmodium falciparum was 8.03
